# ASSAYED_SYSTEM: human glucagon receptor (human) (UniProt P47871)
# Sequence (P47871 26-477): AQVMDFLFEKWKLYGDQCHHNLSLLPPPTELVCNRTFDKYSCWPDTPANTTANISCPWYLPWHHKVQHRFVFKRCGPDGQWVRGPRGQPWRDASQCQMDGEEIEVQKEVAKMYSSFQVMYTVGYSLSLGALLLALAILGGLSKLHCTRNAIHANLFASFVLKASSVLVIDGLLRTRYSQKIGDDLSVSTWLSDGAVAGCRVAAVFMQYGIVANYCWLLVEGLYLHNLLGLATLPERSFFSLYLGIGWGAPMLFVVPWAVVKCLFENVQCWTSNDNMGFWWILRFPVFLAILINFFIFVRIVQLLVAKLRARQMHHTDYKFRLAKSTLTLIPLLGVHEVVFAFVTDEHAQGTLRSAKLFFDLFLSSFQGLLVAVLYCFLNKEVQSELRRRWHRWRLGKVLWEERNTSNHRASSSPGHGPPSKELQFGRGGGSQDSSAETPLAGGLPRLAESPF
# METHOD_SUMMARY: cell-based or functional assay
QUANTITY_NAME: cAMP EC50 (nM)

A: IP338 (Fc fusion) YSEGTFISDYSIAMDKIHQQDFVNWLLAQKGGGGGSGGGGSGGGGSGGGGSGGGGSGGGGSGGGGSGGGGSAN
B: IP413 (Fc fusion) YSEGTFTSDYSKLLEEEASRLFIEWLLAGGGGGGSGGGGSGGGGSGGGGSATHTCPPC
Q) // compare: A vs B , metric cAMP EC50, want the smaller Write the label of whichever entry you select.
A) B
